- TESTED ON: CYP3A4 (Homo sapiens, UniProt P08684)
- Construct: purchased BD Gentest (Woburn, MA, USA); host or cells: baculovirus expression system
- Sequence (P08684 whole entry): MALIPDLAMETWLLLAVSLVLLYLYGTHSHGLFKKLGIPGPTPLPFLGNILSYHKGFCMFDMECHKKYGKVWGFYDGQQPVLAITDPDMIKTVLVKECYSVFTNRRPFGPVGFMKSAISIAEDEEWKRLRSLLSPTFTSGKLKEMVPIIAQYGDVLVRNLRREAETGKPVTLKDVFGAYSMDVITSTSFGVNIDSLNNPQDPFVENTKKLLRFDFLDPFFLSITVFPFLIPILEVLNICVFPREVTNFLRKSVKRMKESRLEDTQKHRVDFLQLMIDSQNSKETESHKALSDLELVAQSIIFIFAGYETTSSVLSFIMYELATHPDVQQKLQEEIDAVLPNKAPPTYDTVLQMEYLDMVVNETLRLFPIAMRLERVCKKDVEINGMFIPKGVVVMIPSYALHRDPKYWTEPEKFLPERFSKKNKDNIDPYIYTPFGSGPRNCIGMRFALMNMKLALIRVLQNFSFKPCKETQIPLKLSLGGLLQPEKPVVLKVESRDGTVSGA
- PROTOCOL: Time dependent inhibition (pre-incubation assay) of recombinant CYP3A4
- Type: in vitro ADME
METRIC: pIC50
The quantity pIC50 is defined as the negative base-10 logarithm of the molar concentration.

# input compound: CCCC/C=C\CCCCCCCCCC1=C(c2c(O)cc(O)cc2CCCCCCCCC/C=C\CCCC)C(=O)C=C(OC)C1=O ; wanted: its pIC50
4.59

Sample CCCC/C=C\CCCCCCCCCc1cc(O)cc(OC)c1 — what was its pIC50?
5.00

Suppose we examine the compound CCCC/C=C\CCCCCCCCCc1cc(O)cc(O)c1 [5-[10(Z)-pentadecenyl]resorcinol] ; what pIC50 value has been reported?
6.52

Report pIC50 for CCCC/C=C\CCCCCCCCCc1cc(O)cc2oc3cc(OC)c(O)c(CCCCCCCCC/C=C\CCCC)c3c12 please.
5.36

Just for reference, paper PMC4126480 is where these values come from.
